molecular target: GST A1-1 (Homo sapiens, UniProt P08263); construct: homodimer purified from human liver cytosol; assay: inhibition of CDNB conjugation activity (Dixon and Hanes plots)
Sequence (P08263 2-222): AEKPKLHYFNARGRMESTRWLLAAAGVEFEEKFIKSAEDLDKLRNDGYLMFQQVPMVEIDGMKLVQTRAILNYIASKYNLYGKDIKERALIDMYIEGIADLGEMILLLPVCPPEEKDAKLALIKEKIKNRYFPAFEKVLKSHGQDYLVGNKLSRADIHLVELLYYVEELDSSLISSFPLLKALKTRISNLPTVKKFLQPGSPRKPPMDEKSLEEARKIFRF
measured-metric: pKi
Give bare numbers, as −log10 of the molar value.

// pKi lookup, molecule = N[C@@H](CCC(=O)N[C@@H](CSCCN(CCCl)c1ccc(CCCC(=O)O)cc1)C(=O)NCC(=O)O)C(=O)O , result: 5.89

* * *

Biological target: GST A2-2 (Homo sapiens, UniProt P09210)
Construct: homodimer purified from human liver cytosol
Sequence (P09210 2-222): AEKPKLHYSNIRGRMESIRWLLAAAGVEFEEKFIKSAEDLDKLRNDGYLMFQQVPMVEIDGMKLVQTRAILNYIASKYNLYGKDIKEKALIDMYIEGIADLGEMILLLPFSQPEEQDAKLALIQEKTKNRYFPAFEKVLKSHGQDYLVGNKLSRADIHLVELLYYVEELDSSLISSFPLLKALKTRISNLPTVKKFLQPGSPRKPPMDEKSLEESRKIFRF
Experiment: inhibition of CDNB conjugation activity (Dixon and Hanes plots)
measured-metric: Ki (nM)
Numbers only, in nM.

// Ki lookup, molecule = N[C@@H](CCC(=O)N[C@@H](CSCCN(CCCl)c1ccc(CCCC(=O)O)cc1)C(=O)NCC(=O)O)C(=O)O , result: 1200
